- measured_target: H1047R PIK3CA enzyme (Homo sapiens, UniProt P42336, H1047R)
- Sequence (P42336 whole entry H1047R): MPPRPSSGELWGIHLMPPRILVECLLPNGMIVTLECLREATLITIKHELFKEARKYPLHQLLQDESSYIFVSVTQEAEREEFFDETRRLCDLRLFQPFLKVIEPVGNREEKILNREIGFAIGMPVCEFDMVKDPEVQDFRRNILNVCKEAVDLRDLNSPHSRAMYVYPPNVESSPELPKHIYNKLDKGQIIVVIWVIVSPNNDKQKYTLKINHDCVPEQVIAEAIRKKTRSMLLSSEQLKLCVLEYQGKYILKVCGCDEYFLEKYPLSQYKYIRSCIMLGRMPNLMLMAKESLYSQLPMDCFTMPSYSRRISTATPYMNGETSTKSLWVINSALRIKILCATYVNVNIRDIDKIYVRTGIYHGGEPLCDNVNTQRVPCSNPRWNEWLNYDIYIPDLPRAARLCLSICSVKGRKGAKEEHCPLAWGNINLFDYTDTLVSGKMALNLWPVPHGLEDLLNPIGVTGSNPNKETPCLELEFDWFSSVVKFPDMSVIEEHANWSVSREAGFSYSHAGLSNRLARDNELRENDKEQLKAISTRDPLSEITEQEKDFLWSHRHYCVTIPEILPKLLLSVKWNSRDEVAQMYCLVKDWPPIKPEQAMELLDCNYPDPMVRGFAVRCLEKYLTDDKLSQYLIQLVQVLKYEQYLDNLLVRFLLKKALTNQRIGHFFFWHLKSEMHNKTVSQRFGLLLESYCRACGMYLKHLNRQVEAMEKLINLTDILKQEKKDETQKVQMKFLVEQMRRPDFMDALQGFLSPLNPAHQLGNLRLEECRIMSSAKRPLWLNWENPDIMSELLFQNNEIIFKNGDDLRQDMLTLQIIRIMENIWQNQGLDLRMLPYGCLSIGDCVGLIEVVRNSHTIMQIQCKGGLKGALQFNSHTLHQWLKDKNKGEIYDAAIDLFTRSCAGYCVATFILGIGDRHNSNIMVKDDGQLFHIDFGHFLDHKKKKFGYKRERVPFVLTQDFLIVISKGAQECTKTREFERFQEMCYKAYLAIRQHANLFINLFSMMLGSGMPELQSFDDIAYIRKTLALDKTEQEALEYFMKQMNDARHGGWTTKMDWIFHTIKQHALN
- Sequence (P27986 whole entry partner): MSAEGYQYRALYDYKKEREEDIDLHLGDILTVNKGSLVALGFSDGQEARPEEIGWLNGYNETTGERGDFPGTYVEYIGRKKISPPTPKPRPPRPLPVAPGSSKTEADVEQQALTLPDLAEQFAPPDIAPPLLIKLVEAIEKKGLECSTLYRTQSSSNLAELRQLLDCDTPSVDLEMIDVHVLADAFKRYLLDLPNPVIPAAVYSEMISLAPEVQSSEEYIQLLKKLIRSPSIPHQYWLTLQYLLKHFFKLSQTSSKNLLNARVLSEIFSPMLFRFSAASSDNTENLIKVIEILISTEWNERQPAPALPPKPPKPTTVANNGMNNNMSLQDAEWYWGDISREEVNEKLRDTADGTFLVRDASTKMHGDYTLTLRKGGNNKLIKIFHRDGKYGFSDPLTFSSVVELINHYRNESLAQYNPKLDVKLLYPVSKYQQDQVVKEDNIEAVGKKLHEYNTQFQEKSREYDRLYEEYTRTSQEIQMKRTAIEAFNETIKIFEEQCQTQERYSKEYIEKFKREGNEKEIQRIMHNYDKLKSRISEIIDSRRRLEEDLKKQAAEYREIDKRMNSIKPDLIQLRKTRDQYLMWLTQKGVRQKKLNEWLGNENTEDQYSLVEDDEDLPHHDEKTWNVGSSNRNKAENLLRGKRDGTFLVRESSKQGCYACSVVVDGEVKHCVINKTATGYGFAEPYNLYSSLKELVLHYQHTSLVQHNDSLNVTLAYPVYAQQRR
- assay_summary: ADP-Glo Biochemical PIK3CA Kinase Assay
pIC50: −log10 of the molar value.
Please provide measured pIC50 for the entries that follow.

Examples with answers:
> print(dat)
                                   compound                           measured.target         value
1  O=C1N[C@@H](c2cc(F)ccc2Cl)c2c(NC(=O)N3C[C@@](O)(C(F)(F)F)c4cc(F)ccc43)cc(N3CCCC3=O)cc21 (single isomer, unassigned)  H1047R PIK3CA enzyme (Homo sapiens, UniProt P42336, H1047R)  5.00 to 6.00
2  CC[C@@H](CC(=O)Nc1cccc2c1[C@@H](c1cc(F)ccc1Cl)NC2=O)[C@H](C)C(F)(F)F (single isomer, unassigned)  H1047R PIK3CA enzyme (Homo sapiens, UniProt P42336, H1047R)  4.00 to 5.00
3  Cc1ccccc1[C@@H]1NC(=O)c2cc(N)cc(NC(=O)c3nsc4ccccc34)c21  H1047R PIK3CA enzyme (Homo sapiens, UniProt P42336, H1047R)        ≥ 7.00
4  CC1(c2ccccc2)NC(=O)c2cccc(NC(=O)c3csc4ccccc34)c21 (stereo not drawn)  H1047R PIK3CA enzyme (Homo sapiens, UniProt P42336, H1047R)  4.00 to 5.00
5  O=C1N[C@@H](c2cc(F)ccc2Cl)c2c(NC(=O)N3C[C@H](O)c4cc(F)ccc43)cccc21 (single isomer, unassigned)  H1047R PIK3CA enzyme (Homo sapiens, UniProt P42336, H1047R)  6.00 to 6.30

Below are some compounds; for each one, tell me its pIC50.
1. O=C(Nc1cc(C2CCCOC2)cc2c1C(c1cc(F)ccc1Cl)NC2=O)c1cc(F)cc(C(F)(F)F)c1 (stereo not drawn)
2. CNc1cc(NC(=O)N2C[C@](O)(C(F)(F)F)c3cc(F)ccc32)c2c(c1C#N)C(=O)N[C@@H]2c1cc(F)ccc1Cl (single isomer, unassigned)
3. O=C(Nc1cccc2c1C(c1cc(F)ccc1Cl)NC2=O)c1csc2c1CCOC2 (stereo not drawn)
4. C[C@H](c1cc(NC(=O)c2cc(F)cc(C(F)(F)F)c2)c2c(c1)C(=O)N[C@H]2c1cc(F)ccc1Cl)S(C)(=O)=O (single isomer, unassigned)

1. ≥ 7.00
2. ≥ 7.00
3. 6.30 to 7.00
4. ≥ 7.00
